Recorded apparent KD of K4 kissing-loop reporter, one value per entry.
system: K4 kissing-loop RNA reporter; experiment: apparent KD of K4 kissing-loop reporter; higher = weaker reporter binding; settings: Eterna round: R107; input ligand: arginine 13.2 mM;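 further: bound reporter read as fluorescence of individual clusters on recovered sequencing chips by microscopy, with normalized cluster intensities fitted with a binding model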
Dear colleague, please return just the value in nM, with no unit written.

monomer sequence	recorded metric	quantitative result
CAUUCGAAAUGCAGUGAUGUUGCAACUGAUACCAGUAUCGAAAGAUACCCUUGGCAGCGGAAAACCGCUACGUUUUUUUUGAAUG [Ex Theophylline A K4 24]	apparent KD of K4 kissing-loop reporter	312
GGAUAGGACAGAGGAUAUGGUAGUGAUGUUACCAACAGCCUACUGUCAAUAAAGACGGUUGGCUGACCAGAAGGCUGUCCUAUCG [Mod of Eli's FmnBX 26 v1]	apparent KD of K4 kissing-loop reporter	132
AAAGACUGACUGCAAUUAGCAGUCAGUCAACGAGGACCGGUACGGCCGCCACUCGGGUCCUAGAGUGAUGUUCUAAUAAUAUAAU [Default title]	apparent KD of K4 kissing-loop reporter	367

Q: Please look at this sequence and report its apparent KD of K4 kissing-loop reporter: CGCCGUAAGGCGGUCGCUCCCACUCCGGAAGGAGCGCCCGCAAGGGCAGGUAGGUCGCCGGAGUGAUGUUCCGGUGGAGGGACCG [#2 Exclusion - Arginine A Attempt #7 (Inspired by Omei)]
Result: 161

Q: Please look at this sequence and report its apparent KD of K4 kissing-loop reporter: CUCACAGUGAUGUUGUGGGCCGAGAGUGAUACCAGCCGUAUUUGUGGCCCUUGGCAGCGCAGAACCAGUGAUGUUGGUUACUUGG [Same State Theophylline A GF 23]
Result: 286

Q: Please look at this sequence and report its apparent KD of K4 kissing-loop reporter: GGAUAGGACAGAGGAUAUCCAGUGAUGUUGGAGAAUUCUCCUUCAACAUGUCACAAAAGUGGCAUGGGAGAAGGCUGUCCUAUCG [Mod of Eli's FmnBX 29 v2]
Result: 120

Q: Please look at this sequence and report its apparent KD of K4 kissing-loop reporter: AAGCUCAGCGUGACUCGAUAAGAGUCACAACGAGGACCGGUACGGCCGCCACUCGAAAUAAGAGAGUGAUGUUCUCGCUGAGCAA [#SwitchBubble 6 #StaticStem #K4Late]
Result: 344
